The origin of these recorded values is PubChem BioAssay AID1919014.

system: NCI-H1341 complex spheroids, percent test/control; assay: Anticancer human tumor NCI-H1341 cell line growth inhibition [AhR]; details: compound alone; run of 07/12/2022;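 further: spheroids exposed to agents for seven days before readout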
quantity.kind: IC50

Identify the reported IC50 for the following entry. CC(CO)NC(=O)c1cc(-c2ccc(Cl)cc2)nn(-c2cnn(C)c2)c1=O (stereo unspecified)
> 10 µM

====

system: NCI-H1341 complex spheroids, percent test/control; experiment: Anticancer human tumor NCI-H1341 cell line growth inhibition [AhR]; settings: second compound 0.316 µM; first compound 0.316 µM; stronger effect = lower value;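 further: spheroids exposed to agents for seven days before readout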
quantity.kind: viability, T/C (%)
Give bare numbers, in %.

Use the examples below as a reference point.
{"molecule": "NS(=O)(=O)OCC1CC(n2ccc3c(NC4CCc5ccccc54)ncnc32)CC1O (centres undefined) + CC(CO)NC(=O)c1cc(-c2ccc(Cl)cc2)nn(-c2cnn(C)c2)c1=O", "quantity.kind": "viability, T/C", "result.value": 13.5}
{"molecule": "CC1(C)CCC(CN2CCN(c3ccc(C(=O)NS(=O)(=O)c4ccc(NCC5CCOCC5)c([N+](=O)[O-])c4)c(Oc4cnc5[nH]ccc5c4)c3)CC2)=C(c2ccc(Cl)cc2)C1 + CC(CO)NC(=O)c1cc(-c2ccc(Cl)cc2)nn(-c2cnn(C)c2)c1=O", "quantity.kind": "viability, T/C", "result.value": 72.3}
{"molecule": "COc1cc(C2c3cc4c(cc3C(OC3OC5COC(C)OC5C(O)C3O)C3COC(=O)C23)OCO4)cc(OC)c1O (centres undefined) + Cc1cncc(-c2nc(NCCc3c[nH]c4ccccc34)c3ncn(C(C)C)c3n2)c1", "quantity.kind": "viability, T/C", "result.value": 62.2}
{"molecule": "O=C(c1cc(Cc2n[nH]c(=O)c3ccccc23)ccc1F)N1CCN(C(=O)C2CC2)CC1 + Cc1ccccc1N=Nc1ccc(NC(=O)c2ccnn2C)c(C)c1", "quantity.kind": "viability, T/C", "result.value": 97.4}
{"molecule": "COc1cc(Nc2ncc3c(n2)-c2ccc(Cl)cc2C(c2c(F)cccc2OC)=NC3)ccc1C(=O)O + Cc1cncc(-c2nc(NCCc3c[nH]c4ccccc34)c3ncn(C(C)C)c3n2)c1", "quantity.kind": "viability, T/C", "result.value": 34.9}
{"molecule": "Nc1ccn(C2OC(CO)C(O)C2(F)F)c(=O)n1 (centres undefined) + Cc1cncc(-c2nc(NCCc3c[nH]c4ccccc34)c3ncn(C(C)C)c3n2)c1", "quantity.kind": "viability, T/C", "result.value": 25.9}

Below are 7 molecules. Give each one its viability, T/C.
1. NS(=O)(=O)OCC1CC(n2ccc3c(NC4CCc5ccccc54)ncnc32)CC1O (centres undefined) + Cc1ccccc1N=Nc1ccc(NC(=O)c2ccnn2C)c(C)c1
2. CC1COCCN1c1cc(C2(S(C)(=N)=O)CC2)nc(-c2ccnc3[nH]ccc23)n1 (centres undefined) + Cc1ccccc1N=Nc1ccc(NC(=O)c2ccnn2C)c(C)c1
3. Nc1ccccc1NC(=O)c1ccc(CNC(=O)OCc2cccnc2)cc1 + Cc1cncc(-c2nc(NCCc3c[nH]c4ccccc34)c3ncn(C(C)C)c3n2)c1
4. CC1COCCN1c1cc(C2(S(C)(=N)=O)CC2)nc(-c2ccnc3[nH]ccc23)n1 (centres undefined) + Cc1cncc(-c2nc(NCCc3c[nH]c4ccccc34)c3ncn(C(C)C)c3n2)c1
5. CC(C)c1c(-c2ccccc2)nc2c(C#N)c[nH]n2c1=O + CC(CO)NC(=O)c1cc(-c2ccc(Cl)cc2)nn(-c2cnn(C)c2)c1=O
6. Nc1ccn(C2OC(CO)C(O)C2(F)F)c(=O)n1 (centres undefined) + CC(CO)NC(=O)c1cc(-c2ccc(Cl)cc2)nn(-c2cnn(C)c2)c1=O
7. COc1ccc([C@@H](O)c2cc(-c3ncnc4cc(N5CCOCC5)ccc34)c(F)cc2Cl)nn1 + Cc1cncc(-c2nc(NCCc3c[nH]c4ccccc34)c3ncn(C(C)C)c3n2)c1

16.8
89
55.7
75.1
93
25.6
59.9

I need viability, T/C for every entry listed below, if you could help.
1. Nc1ncn(C2CC(O)C(CO)O2)c(=O)n1 (centres undefined) + Cc1ccccc1N=Nc1ccc(NC(=O)c2ccnn2C)c(C)c1
2. CC1COCCN1c1cc(-c2ccnn2C)c2ccnc(-c3ccn[nH]3)c2n1 (centres undefined) + Cc1cncc(-c2nc(NCCc3c[nH]c4ccccc34)c3ncn(C(C)C)c3n2)c1
3. Nc1ncn(C2CC(O)C(CO)O2)c(=O)n1 (centres undefined) + CC(CO)NC(=O)c1cc(-c2ccc(Cl)cc2)nn(-c2cnn(C)c2)c1=O
4. COc1ccc([C@@H](O)c2cc(-c3ncnc4cc(N5CCOCC5)ccc34)c(F)cc2Cl)nn1 + Cc1ccccc1N=Nc1ccc(NC(=O)c2ccnn2C)c(C)c1
5. COc1ccc([C@@H](O)c2cc(-c3ncnc4cc(N5CCOCC5)ccc34)c(F)cc2Cl)nn1 + CC(CO)NC(=O)c1cc(-c2ccc(Cl)cc2)nn(-c2cnn(C)c2)c1=O
6. COc1cccc2c1C(=O)c1c(O)c3c(c(O)c1C2=O)CC(O)(C(=O)CO)CC3OC1CC(N)C(O)C(C)O1 (centres undefined) + Cc1cncc(-c2nc(NCCc3c[nH]c4ccccc34)c3ncn(C(C)C)c3n2)c1
7. O=C(c1cc(Cc2n[nH]c(=O)c3ccccc23)ccc1F)N1CCN(C(=O)C2CC2)CC1 + CC(CO)NC(=O)c1cc(-c2ccc(Cl)cc2)nn(-c2cnn(C)c2)c1=O

53.8
19.8
39.1
70.6
72.7
34.8
91.6

Hey, quick one: what's viability, T/C for each of these?
1. O=C(C=Cc1cccc(S(=O)(=O)Nc2ccccc2)c1)NO + Cc1cncc(-c2nc(NCCc3c[nH]c4ccccc34)c3ncn(C(C)C)c3n2)c1
2. COc1cc(C2c3cc4c(cc3C(OC3OC5COC(C)OC5C(O)C3O)C3COC(=O)C23)OCO4)cc(OC)c1O (centres undefined) + Cc1ccccc1N=Nc1ccc(NC(=O)c2ccnn2C)c(C)c1
3. Nc1ccccc1NC(=O)c1ccc(CNC(=O)OCc2cccnc2)cc1 + CC(CO)NC(=O)c1cc(-c2ccc(Cl)cc2)nn(-c2cnn(C)c2)c1=O
4. COc1cc(Nc2ncc3c(n2)-c2ccc(Cl)cc2C(c2c(F)cccc2OC)=NC3)ccc1C(=O)O + Cc1ccccc1N=Nc1ccc(NC(=O)c2ccnn2C)c(C)c1

[55.1, 57.1, 45, 48.5]
